# protocolDetails: Validation screen for inhibitors of Lassa infection (AID 463096)
# runParameters: Lassa virus infection, cell-based; series mostly up to 46.1 µM
Inconclusive results are not listed. Active and inactive are the calls of the source. Calls come from the whole dose curve.
reportedMetric: outcome

Solved cases below.
# compound, outcome
rows = [
    ("COC(=O)c1c(C)[nH]c(C)c1C(=O)c1ccccc1Cc1ccccc1", "inactive"),
    ("C=C(C)C1CC=C(C(=O)O)CC1 (configuration not stated)", "inactive"),
    ("COc1ccc(C(=O)NCc2cccnc2)cc1C(=O)NCc1cccnc1", "inactive"),
    ("COc1ccc2c(c1)c(CC(=O)O)c(C)n2C(=O)c1ccccc1", "inactive"),
    ("N[C@@H](CCCC(=O)O)C(=O)O", "inactive"),
]

Inquiry: Which outcome value belongs to CCC(=O)N1CCN(C(=O)c2ccccc2)CC1 ?
Reply text: inactive

Inquiry: Which outcome value belongs to CCCCCCCCCCCCCCCC(=O)OC(CC(=O)O)C[N+](C)(C)C (configuration not stated) ?
Reply text: inactive
